Data origin, for the record: PubChem BioAssay (NCATS)

- method-description: Viability qHTS for spleen associated tyrosine kinase inhibitor (SYKi) drug resistant MV4-11 cells (AID 1963824); further: nearly all actives have a fitted effect of over 35% in size; further: potency means the concentration at half of the fitted maximal effect
- conditions-used: SYKi-resistant MV4-11 viability, CellTiter-Glo, 72 h; series mostly up to 45 µM
Inconclusive results are not listed. Activity calls are given as the source filed them. The call rests on the fitted dose curve; in most records, active means well fitted cell-killing curve with a large enough effect; inconclusive means small, poorly fitted or top-dose-only effect, or effect the other way; inactive means no such curve, though single readings can be large or run the other way.
value-type: Potency

Use these answered entries as a reference point.
CC(C)=CC/C=C(\C)[C@H]1CC[C@]2(C)[C@@H]1[C@H](O)C[C@@H]1[C@@]3(C)CC[C@H](O)C(C)(C)[C@@H]3[C@@H](O[C@@H]3O[C@H](CO)[C@@H](O)[C@H](O)[C@H]3O)C[C@]12C | inactive
Cc1cc(OI)c(C(C)C)cc1-c1cc(C(C)C)c(OI)cc1C | inactive
CC(C)(O)c1cc2nc(-c3cnc(N)nc3)nc(N3CCOCC3)c2s1 | 1160 nM (active)
CC(O)(C(=O)C1CC1(CO)COC1OC(CO)C(O)C(O)C1O)C1C(O)CC2C3CC=C4CC(O)CC(O)C4(C)C3C(O)CC21C (centres undefined) | 217 nM (active)

Hi, could you look up Potency for each item in my list?
1. Cc1ccn(-c2ccc(-c3ncco3)cc2)c(=O)c1-c1ccc2nc(N)ncc2c1
2. C[C@]12CCC(=O)C=C1CC[C@H]1[C@@H]3CC[C@](O)(C(=O)CO)[C@@]3(C)C[C@H](O)[C@@]12F
3. CCS(=O)(=O)CCn1c([N+](=O)[O-])cnc1C
4. Cc1cccc(C)c1OCC(C)N (centres undefined)
5. CC1=C2C=C(CO)C(CO)CCC2(C)CCC1=O (centres undefined)

a:
1: 2310 nM (active); 2: inactive; 3: inactive; 4: inactive; 5: inactive

====

- method-description: Viability qHTS for spleen associated tyrosine kinase inhibitor (SYKi) naive MV4-11 cells (AID 1963823); further: nearly all actives have a fitted effect of over 40% in size; further: potency means the concentration at half of the fitted maximal effect
- conditions-used: MV4-11 AML viability, CellTiter-Glo luminescence, 72 h; series mostly up to 45 µM
Results filed as inconclusive are left out. Calls of active or inactive are those of the source. The call rests on the fitted dose curve; in most records, active means well fitted cell-killing curve with a large enough effect; inconclusive means small, poorly fitted or top-dose-only effect, or effect the other way; inactive means no such curve, though single readings can be large or run the other way.
value-type: Potency

Use these answered entries as a reference point.
CC(=O)/C=C/[C@H]1[C@](C)(O)[C@@H](O)[C@H](O)C2C(C)(C)CCC[C@@]21C (stereo partly drawn) | inactive
OC[C@H]1O[C@@H](OCc2ccccc2)[C@H](O[C@@H]2OC[C@@H](O)[C@H](O)[C@H]2O)[C@@H](O)[C@@H]1O | inactive
Cc1c[nH]c(/C=C2\C(=O)Nc3ccccc32)c1CCC(=O)O | 468 nM (active)
NC(=O)[C@H]1CCS[C@@H]2C[C@]3(CCCN3C(=O)Cc3ccc(NC(=O)COc4ccc(Cl)cc4Cl)cc3)C(=O)N12 | 3260 nM (active)
CC(C)C(=O)OC[C@H]1O[C@@H](n2ccc(N)nc2=O)[C@](C)(F)[C@@H]1OC(=O)C(C)C | inactive
COC1C(O)C(OC2CCC3(C)C(CCC45CCC6C7(COC(=O)C7)OC4(O)C6(C)CCC35)C2)OC(C)C1OC1OC(CO)C(OC2OC(CO)C(O)C(O)C2O)C(O)C1O (stereo not drawn) | 3900 nM (active)
O=C(/C=C/c1ccc2ccc(C(F)(F)F)cc2n1)c1ccncc1 | 934 nM (active)
COc1ccc(CN2C(=O)C(=O)c3cc(S(=O)(=O)N4CCC[C@H]4COc4cccnc4)ccc32)cc1 | inactive
C[C@H](O)[C@H](O)/C=C/c1cccc(O)c1CO | inactive
CN(C)CCN1CCN(c2cccc(Cl)c2)C1=O | inactive

Hi, could you look up Potency for each item in my list?
1. COc1cc2ncnc(N3CCC(Oc4cnc5ccccc5n4)C3)c2cc1OC (stereo not drawn)
2. COC(=O)[C@H]1[C@@H](O)[C@@]2(O)c3c(OC)cc(O[C@@H]4O[C@@H]([C@@H](O)CO)CO[C@H]4OC)cc3O[C@@]2(c2ccc(OC)cc2)[C@@H]1c1ccccc1

a:
1: 580 nM (active); 2: 2350 nM (active)

Hi, could you look up Potency for each item in my list?
1. CCCCNc1ncc2c(-c3ccc(CN4CCN(C)CC4)cc3)cn(C3CCC(O)CC3)c2n1 (stereo not drawn)
2. O=c1ccn(C2OC(CO)C(O)C2O)c(=O)[nH]1 (stereo not drawn)
3. CC1CCC2C(C)(C)[C@H](O)CC[C@]2(C)C12Cc1c(O)cc3c(c1O2)CN(C(CCC(=O)O)C(=O)O)C3=O (stereo partly drawn)
4. CC(C)NC(=O)c1ccc(C=O)cc1
5. C=CC1(C)CC(OC(=O)/C(C)=C\COC(C)=O)C(C(=C)C(=O)O)C(O)C1C(=C)CO (stereo not drawn)
6. C=C(C)C(=O)O[C@H]1[C@H]2C(=C)C(=O)O[C@@H]2C[C@@H](C)/C=C\C(=O)[C@](C)(O)[C@@H]1OC(C)=O

a:
1: 10.5 nM (active); 2: inactive; 3: inactive; 4: inactive; 5: inactive; 6: inactive
